species: Rattus norvegicus; assay: DrugMatrix - Regimen: Daily Repeat; format: toxicity, organism-based, Sprague-Dawley; parameters: regimen Daily Repeat, gender Male, age 6-8 weeks; settings: in vivo, po, 0 mg/kg, 120 h, tissue Plasma, route oral GAVAGE, dose level Control, time 5 day, […]
measuredQuantity: ASPARTATE AMINOTRANSFERASE

In the examples that follow, each entry is paired with its recorded ASPARTATE AMINOTRANSFERASE.
> print(dat)
                                   compound            measuredquantity   measured
1  CSc1ccc2c(c1)N(CCC1CCCCN1C)c1ccccc1S2 (stereo unspecified) [THIORIDAZINE]  ASPARTATE AMINOTRANSFERASE  99.67 u/L
2  CC1=C(/C=C/C(C)=C/C=C/C(C)=C\C(=O)O)C(C)(C)CCC1 [ISOTRETINOIN]  ASPARTATE AMINOTRANSFERASE  83.17 u/L
3  CC(C)(Oc1ccc(CCNC(=O)c2ccc(Cl)cc2)cc1)C(=O)O [BEZAFIBRATE]  ASPARTATE AMINOTRANSFERASE   78.6 u/L
4                        C=CCN [ALLYLAMINE]  ASPARTATE AMINOTRANSFERASE     80 u/L
5  COCc1c(C(C)C)nc(C(C)C)c(/C=C/[C@@H](O)C[C@@H](O)CC(=O)O)c1-c1ccc(F)cc1 [CERIVASTATIN]  ASPARTATE AMINOTRANSFERASE  89.17 u/L

# input for lookup
Which ASPARTATE AMINOTRANSFERASE value belongs to CC(=O)[C@H]1CC[C@H]2[C@@H]3CCC4=CC(=O)CC[C@]4(C)[C@H]3CC[C@]12C [PROGESTERONE] ? 83.33 u/L

====

organism: Rattus norvegicus; experiment: DrugMatrix - Regimen: Daily Repeat; type: toxicity, organism-based, Sprague-Dawley; design: regimen Daily Repeat, gender Male, age 6-8 weeks; conditions: in vivo, po, 0 mg/kg, 120 h, tissue Plasma, route oral GAVAGE, dose level Control, time 5 day, […]
measuredQuantity: LACTATE DEHYDROGENASE (u/L)
Response body: numeric value in u/L, unit text excluded.

Entry under review: CC(=O)[C@H]1CC[C@H]2[C@@H]3CCC4=CC(=O)CC[C@]4(C)[C@H]3CC[C@]12C . Reported LACTATE DEHYDROGENASE? 124

Recorded LACTATE DEHYDROGENASE for COC1=CC(=O)C[C@@H](C)[C@]12Oc1c(Cl)c(OC)cc(OC)c1C2=O , please? 408.67

Find the recorded LACTATE DEHYDROGENASE belonging to CSc1ccc2c(c1)N(CCC1CCCCN1C)c1ccccc1S2 (stereo not drawn) and report it. 518.17

Item under review: CN(C)CCCC1(c2ccc(F)cc2)OCc2cc(C#N)ccc21 (stereo not drawn) . Reported LACTATE DEHYDROGENASE? 124

What LACTATE DEHYDROGENASE value was documented for this molecule, COc1ccc2c(c1)c(CC(=O)OCC(=O)O)c(C)n2C(=O)c1ccc(Cl)cc1 ? 656.5

Dear colleague, I am looking for the recorded LACTATE DEHYDROGENASE of the following molecule: CCCCCCCCCc1ccc(O)cc1 229.17

Request the reported LACTATE DEHYDROGENASE associated with CCCC[C@@H](CC)COC(=O)c1ccccc1C(=O)OC[C@@H](CC)CCCC [BIS(2-ETHYLHEXYL)PHTHALATE] 104.83

Which LACTATE DEHYDROGENASE is listed for c1ccc2[nH]c(-c3cscn3)nc2c1 ? 104.83

====

organism: Rattus norvegicus; test: DrugMatrix - Regimen: Daily Repeat; format: toxicity, organism-based, Sprague-Dawley; design: regimen Daily Repeat, gender Male, age 6-8 weeks; details: in vivo, iv, 0 mg/kg, 120 h, tissue Plasma, dose level Control, time 5 day, vehicle 100 % SALINE
A collection of compounds and their measured ASPARTATE AMINOTRANSFERASE
Number only, in u/L; omit the unit.

smilesString	outputUnit	ASPARTATE AMINOTRANSFERASE
NCC[C@H](O)C(=O)N[C@@H]1C[C@H](N)[C@@H](O[C@H]2O[C@H](CN)[C@@H](O)[C@H](O)[C@H]2O)[C@H](O)[C@H]1O[C@H]1O[C@H](CO)[C@@H](O)[C@H](N)[C@H]1O	u/L	82.5
CN(N=O)C(=O)N[C@@H](C=O)[C@@H](O)[C@H](O)[C@H](O)CO	u/L	95.17
CC1(C)S[C@@H]2[C@H](NC(=O)[C@H](NC(=O)N3CCNC3=O)c3ccccc3)C(=O)N2[C@H]1C(=O)O	u/L	84.83

Query compound follows.
Given the compound CC[C@@]1(O)C(=O)OCc2c1cc1n(c2=O)Cc2cc3ccccc3nc2-1 , what is its reported ASPARTATE AMINOTRANSFERASE? 81.67

====

We begin with a simple list: items and their reported PHOSPHORUS.
organism: Rattus norvegicus; assay: DrugMatrix - Regimen: Daily Repeat; format: toxicity, organism-based, Sprague-Dawley; parameters: regimen Daily Repeat, gender Male, age 6-8 weeks; details: in vivo, iv, 0 mg/kg, 72 h, tissue Plasma, dose level Control, time 3 day, vehicle 100 % SALINE
Provide only the numeric value, understood in mg/dL.

molecule	measured
CC1(C)S[C@@H]2[C@H](NC(=O)[C@H](NC(=O)N3CCNC3=O)c3ccccc3)C(=O)N2[C@H]1C(=O)O [AZLOCILLIN]	12.12
CN(N=O)C(=O)N[C@@H](C=O)[C@@H](O)[C@H](O)[C@H](O)CO [STREPTOZOCIN]	11.13
CC[C@@]1(O)C(=O)OCc2c1cc1n(c2=O)Cc2cc3ccccc3nc2-1 [CAMPTOTHECIN]	12.68

Next molecule, please.
Could you tell me which PHOSPHORUS is on file for NCC[C@H](O)C(=O)N[C@@H]1C[C@H](N)[C@@H](O[C@H]2O[C@H](CN)[C@@H](O)[C@H](O)[C@H]2O)[C@H](O)[C@H]1O[C@H]1O[C@H](CO)[C@@H](O)[C@H](N)[C@H]1O [AMIKACIN] ? 10.87

====

species: Rattus norvegicus; test: DrugMatrix - Regimen: Daily Repeat; type: toxicity, organism-based, Sprague-Dawley; set-up: regimen Daily Repeat, gender Male, age 6-8 weeks; conditions: in vivo, po, 0 mg/kg, 120 h, tissue Blood, route oral GAVAGE, dose level Control, time 5 day, […]
Some molecules, each annotated with its measured HEMOGLOBIN.
# output: bare number, implied unit G/DL

Recorded results for 6 molecules are shown here.
> print(dat)
                                   molecule  measuredquantity  measured
1  CC(=O)[C@H]1CC[C@H]2[C@@H]3CCC4=CC(=O)CC[C@]4(C)[C@H]3CC[C@]12C        HEMOGLOBIN      13.5
2  COC1=CC(=O)C[C@@H](C)[C@]12Oc1c(Cl)c(OC)cc(OC)c1C2=O        HEMOGLOBIN     13.42
3  CSc1ccc2c(c1)N(CCC1CCCCN1C)c1ccccc1S2 (stereo not given)        HEMOGLOBIN     13.55
4  CC(C)n1c(/C=C/C(O)CC(O)CC(=O)O)c(-c2ccc(F)cc2)c2ccccc21 (stereo not given)        HEMOGLOBIN     13.48
5  CC(C)(Oc1ccc(CCNC(=O)c2ccc(Cl)cc2)cc1)C(=O)O [BEZAFIBRATE]        HEMOGLOBIN      14.9
6   Cn1cnc([N+](=O)[O-])c1Sc1ncnc2nc[nH]c12        HEMOGLOBIN     13.17

Look up HEMOGLOBIN: CC1=C(/C=C/C(C)=C/C=C/C(C)=C\C(=O)O)C(C)(C)CCC1 13.2

Recorded HEMOGLOBIN of COc1ccc2c(c1)c(CC(=O)OCC(=O)O)c(C)n2C(=O)c1ccc(Cl)cc1 , please. 13.37

Report HEMOGLOBIN for O=[N+]([O-])c1cc([As](=O)(O)O)ccc1O please. 14.9

Request the reported HEMOGLOBIN associated with COCc1c(C(C)C)nc(C(C)C)c(/C=C/[C@@H](O)C[C@@H](O)CC(=O)O)c1-c1ccc(F)cc1 14.18

====

species on record: Rattus norvegicus; experiment: DrugMatrix - Regimen: Daily Repeat; type: toxicity, organism-based, Sprague-Dawley; set-up: regimen Daily Repeat, gender Male, age 6-8 weeks; conditions: in vivo, po, 1500 mg/kg, 120 h, tissue Plasma, route oral GAVAGE, dose level High, time 5 day, vehicle .5 % CMC
measuredQuantity: ASPARTATE AMINOTRANSFERASE
Note: a bare number is incomplete; add the unit.

Look up ASPARTATE AMINOTRANSFERASE: CCOC(=O)[C@H](CCc1ccccc1)N[C@@H](C)C(=O)N1[C@H](C(=O)O)C[C@@H]2CCC[C@@H]21 89.33 u/L

Give the measured ASPARTATE AMINOTRANSFERASE of O=C1CCc2cc(OCCCCc3nnnn3C3CCCCC3)ccc2N1 [CILOSTAZOL] . 66.33 u/L

Given the compound COC(=O)c1ccc(O)cc1 [METHYLPARABEN] , what is its reported ASPARTATE AMINOTRANSFERASE? 85 u/L

Recorded ASPARTATE AMINOTRANSFERASE of NS(=O)(=O)c1cc2c(cc1Cl)NCNS2(=O)=O [HYDROCHLOROTHIAZIDE] , please. 80 u/L
